# test.method.notes: Decadiene/water partition coefficient, logD of compound at pH 7.4 by HPLC analysis
# Type: physicochemical
experimental.endpoint: logD hydrocarbon water
// no unit string in output, number only

Which logD hydrocarbon water reading was recorded for the molecule `CC(C)C[C@@H]1NC(=O)[C@H](Cc2ccccc2)N(C)C(=O)[C@H]2CCCN2C(=O)[C@H](CC(C)C)NC(=O)[C@H](C)N(C)C(=O)[C@H]([C@@H](C)O)NC(=O)[C@H](Cc2ccccc2)N(C)C(=O)[C@H]2CCCN2C(=O)[C@H](CC(C)C)NC(=O)[C@H](C)N(C)C1=O` ?
4

Query (molecule): `CC(C)C[C@@H]1NC(=O)[C@H](Cc2ccccc2)N(C)C(=O)[C@H]2CCCN2C(=O)[C@H](CC(C)C)NC(=O)[C@H](C)N(C)C(=O)[C@H](CC(C)C)NC(=O)[C@H](Cc2ccccc2)N(C)C(=O)[C@H]2CCCN2C(=O)[C@H](CC(C)C)NC(=O)[C@H]([C@@H](C)O)N(C)C1=O` ; field requested: logD hydrocarbon water
5

* * *

# test.method.notes: Octanol/water partition coefficient, logD of compound at pH 7.4 by HPLC analysis
# Assay type: physicochemical
experimental.endpoint: logD
I'd appreciate a reply containing only the number, no unit.

Entry `CC(C)C[C@@H]1NC(=O)[C@H]([C@@H](C)O)N(C)C(=O)[C@H]2CCCN2C(=O)[C@H](CC(C)C)NC(=O)[C@H](C)N(C)C(=O)[C@H](CC(C)C)NC(=O)[C@H]([C@@H](C)O)N(C)C(=O)[C@H]2CCCN2C(=O)[C@H](CC(C)C)NC(=O)[C@H](C)N(C)C1=O` has what logD?
3.8

logD for `CC(C)C[C@@H]1NC(=O)[C@H](C)N(C)C(=O)[C@H]2CCCN2C(=O)[C@H](CC(C)C)NC(=O)[C@H](C)N(C)C(=O)[C@H](CC(C)C)NC(=O)[C@H](C)N(C)C(=O)[C@@H]2C[C@@H](O)CN2C(=O)[C@H](CC(C)C)NC(=O)[C@H](C)N(C)C1=O` ?
4.1

Give its logD value. Item: `CC(C)C[C@@H]1NC(=O)[C@H]([C@@H](C)O)N(C)C(=O)[C@@H]2C[C@@H](O)CN2C(=O)[C@H](CC(C)C)NC(=O)[C@H](C)N(C)C(=O)[C@H](CC(C)C)NC(=O)[C@H](Cc2ccccc2)N(C)C(=O)[C@@H]2C[C@@H](O)CN2C(=O)[C@H](CC(C)C)NC(=O)[C@H](C)N(C)C1=O`
4.7

I am curious: what logD value has been reported for `CC(C)C[C@@H]1NC(=O)[C@H](Cc2ccccc2)N(C)C(=O)[C@H]2CCCN2C(=O)[C@H](CC(C)C)NC(=O)[C@H](C)N(C)C(=O)[C@H](CC(C)C)NC(=O)[C@H](Cc2ccccc2)N(C)C(=O)[C@H]2CCCN2C(=O)[C@H](CC(C)C)NC(=O)[C@H]([C@@H](C)O)N(C)C1=O` ?
5.7

logD lookup needed for `CC(C)C[C@@H]1NC(=O)[C@H](C)N(C)C(=O)[C@H](CC(C)C)NC(=O)[C@H](C(C)C)N(C)C(=O)[C@@H](C)N(C)C(=O)[C@H](CC(C)C)NC(=O)[C@H](C)N(C)C(=O)[C@H](CC(C)C)NC(=O)[C@H](C(C)C)N(C)C(=O)[C@@H](C)N(C)C1=O` , thanks.
5.2

Bench note: what logD did `CC(C)C[C@@H]1NC(=O)[C@H](Cc2ccccc2)N(C)C(=O)[C@H]2CCCN2C(=O)[C@H](CC(C)C)NC(=O)[C@H](C)N(C)C(=O)[C@H]([C@@H](C)O)NC(=O)[C@H](Cc2ccccc2)N(C)C(=O)[C@H]2CCCN2C(=O)[C@H](CC(C)C)NC(=O)[C@H](C)N(C)C1=O` show?
5.4

* * *

# test.method.notes: Decadiene/water partition coefficient, logD of compound at pH 7.4 by HPLC analysis
# Assay type: physicochemical
Where a SMILES comes first, the peptide text is derived from it. [ ]: non-standard residue; d: D form. NMeF = CN[C@@H](Cc1ccccc1)C(=O)O; NMeA = CN[C@@H](C)C(=O)O
experimental.endpoint: logD hydrocarbon water

What does the data say about its logD hydrocarbon water? Entry: CC(C)C[C@@H]1NC(=O)[C@H](Cc2ccccc2)N(C)C(=O)[C@H]2CCCN2C(=O)[C@H](CC(C)C)NC(=O)[C@H](C)N(C)C(=O)[C@H](CC(C)C)NC(=O)[C@H](Cc2ccccc2)N(C)C(=O)[C@H]2CCCN2C(=O)[C@H](CC(C)C)NC(=O)[C@H](C)N(C)C1=O (cyclo(L[NMeA]L[dP][NMeF]L[NMeA]L[dP][NMeF]))
> 3.5

I'd like to know its logD hydrocarbon water. The compound in question is `CC(C)C[C@@H]1NC(=O)[C@H](C)N(C)C(=O)[C@H]2CCCN2C(=O)[C@H](CC(C)C)NC(=O)[C@H](C)N(C)C(=O)[C@H](CC(C)C)NC(=O)[C@H](C)N(C)C(=O)[C@H]2CCCN2C(=O)[C@H](CC(C)C)NC(=O)[C@H](C)N(C)C1=O`
2.5

* * *

# test.method.notes: Decadiene/water partition coefficient, logD of compound at pH 7.4 by HPLC analysis
# Assay type: physicochemical
experimental.endpoint: logD hydrocarbon water
Provide a numeric answer; units are not to be included.

Form field: reported logD hydrocarbon water of `CC(C)C[C@@H]1NC(=O)[C@H]([C@@H](C)O)N(C)C(=O)[C@H]2CCCN2C(=O)[C@H](CC(C)C)NC(=O)[C@H](C)N(C)C(=O)[C@H](CC(C)C)NC(=O)[C@H]([C@@H](C)O)N(C)C(=O)[C@H]2CCCN2C(=O)[C@H](CC(C)C)NC(=O)[C@H](C)N(C)C1=O`
1.2

Entry under review: `CC(C)C[C@@H]1NC(=O)[C@H](C)N(C)C(=O)[C@H]2CCCN2C(=O)[C@H](CC(C)C)NC(=O)[C@H](C)N(C)C(=O)[C@H]([C@@H](C)O)NC(=O)[C@H](C)N(C)C(=O)[C@H]2CCCN2C(=O)[C@H](CC(C)C)NC(=O)[C@H](C)N(C)C1=O` . Reported logD hydrocarbon water?
0.4

* * *

# test.method.notes: Solubility of the compound by high-throughput equilibrium solubility assay
# Format: physicochemical
Where a SMILES comes first, the peptide text is derived from it. [ ]: non-standard residue; d: D form. NMeF = CN[C@@H](Cc1ccccc1)C(=O)O; NMeA = CN[C@@H](C)C(=O)O
What solubility thermodynamic was measured for each of the following?
Supply the numeric figure in µM, leaving out any unit text.

Quick one: solubility thermodynamic of CC(C)C[C@@H]1NC(=O)[C@H](Cc2ccccc2)N(C)C(=O)[C@H]2CCCN2C(=O)[C@H](CC(C)C)NC(=O)[C@H](C)N(C)C(=O)[C@H](CC(C)C)NC(=O)[C@H](Cc2ccccc2)N(C)C(=O)[C@H]2CCCN2C(=O)[C@H](CC(C)C)NC(=O)[C@H](C)N(C)C1=O (cyclo(L[NMeA]L[dP][NMeF]L[NMeA]L[dP][NMeF])) ?
4

// lookup solubility thermodynamic for `CC(C)C[C@@H]1NC(=O)[C@H](C)N(C)C(=O)[C@H](CC(C)C)NC(=O)[C@H](C(C)C)N(C)C(=O)[C@@H](C)N(C)C(=O)[C@H](CC(C)C)NC(=O)[C@H](C)N(C)C(=O)[C@H](CC(C)C)NC(=O)[C@H](C(C)C)N(C)C(=O)[C@@H](C)N(C)C1=O`
560

solubility thermodynamic lookup needed for `CC(C)C[C@@H]1NC(=O)[C@H](Cc2ccccc2)N(C)C(=O)[C@H]2CCCN2C(=O)[C@H](CC(C)C)NC(=O)[C@H](C)N(C)C(=O)[C@H](CC(C)C)NC(=O)[C@H](Cc2ccccc2)N(C)C(=O)[C@H]2CCCN2C(=O)[C@H](CC(C)C)NC(=O)[C@H]([C@@H](C)O)N(C)C1=O` , thanks.
4

FYI, the data here is from ChEMBL document CHEMBL5233275.
